Tested on: HSV-1 (herpes simplex virus type 1, strain Schooler)
Assay: HSV-1 antiviral assay, plaque reduction in WI-38 cell culture monolayers
Assay type: cell-based
Conditions: Human alphaherpesvirus 1, 96 h; at least 50% plaque reduction; WI-38 cells; 4 days incubation at 37° C; read-out: ID50 HSV-1
Assignment: determine reported pIC50 for the given compounds.
One number for each entry, as −log10 of the molar value.

Check out these entries, answers already filled in.
compound="Nc1ncnc2c1ncn2[C@H]1C[C@@H](CO)[C@@H]1CO (relative stereo)" readout_value=5.10
compound="Nc1nc2c(nnn2[C@H]2C[C@@H](CO)[C@@H]2CO)c(=O)[nH]1 (relative stereo)" readout_value=5.12

Here is another compound to look at.
Prompt line: So what's the measured pIC50 for this one? Nc1ccn([C@H]2C[C@@H](CO)[C@@H]2CO)c(=O)n1 (relative stereo)
Response line: 3.35

---

Tested on: HSV-1 (herpes simplex virus type 1, strain Schooler)
Test: HSV-1 antiviral assay, plaque reduction in WI-38 cell culture monolayers
Format: cell-based
Conditions: Human alphaherpesvirus 1, 96 h; at least 50% plaque reduction; WI-38 cells; 4 days incubation at 37° C; read-out: ID50 HSV-1
pIC50: −log10 of the molar value.
measured_parameter: pIC50

Check out these entries, answers already filled in.
compound="O=c1[nH]c(=O)n([C@H]2C[C@@H](CO)[C@@H]2CO)cc1/C=C/Br (relative stereo)" measured_parameter=pIC50 readout_value="4.52 to 5.00"
compound="Nc1nc2c(ncn2[C@H]2C[C@@H](CO)[C@@H]2CO)c(=O)[nH]1 (relative stereo)" measured_parameter=pIC50 readout_value="6.70 to 7.10"

Here is another compound to look at.
Prompt line: Item: O=c1[nH]c(=O)n([C@H]2C[C@@H](CO)[C@@H]2CO)cc1I (relative stereo) Test system: HSV-1 (herpes simplex virus type 1, strain Schooler) Read-out: pIC50 Value: ?
Response line: 4.85 to 5.22

# credit: patent US5126345A
